Source: the supplement of paper PMC9112550

# System: Escherichia coli TOP10;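 further: peptides expressed intracellularly from a pBAD plasmid library in pooled LB shake-flask culture, induced with 0.3% L-arabinose, DNA abundance read by NGS, three biological replicates, DESeq2 with apeglm shrinkage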
# Method summary: shrunken log2 fold change of peptide-encoding DNA abundance (4.5 h post-induction vs induction); higher = less antimicrobial activity (less host growth inhibition)
# Condition summary: time post-induction: 4.5 h; library: site-saturation at positions 5, 18, 19, 20
Recorded endpoint: shrunken log2 fold change
Simply state the number, no unit and no words.

Exercise: Please give the measured shrunken log2 fold change for this sequence: RRIRLRPPRLPRPRPRPQKAPRP
Key: 0.000116

Exercise: Sample RRIRKRPPRLPRPRPRPTMVPRP — what was its shrunken log2 fold change?
Key: 0.27

Exercise: Entry RRIRTRPPRLPRPRPRPPKVPRP has what shrunken log2 fold change?
Key: 0.286

Exercise: Which value of shrunken log2 fold change has been reported for RRIRTRPPRLPRPRPRPFDKPRP in the records?
Key: -0.154

Exercise: Can you look up the measured shrunken log2 fold change of RRIRNRPPRLPRPRPRPHALPRP for me?
Key: 0.0517

Exercise: // query shrunken log2 fold change value for entry RRIRSRPPRLPRPRPRPNLTPRP
Key: -0.15

Exercise: Would you mind telling me what shrunken log2 fold change value was observed for RRIRYRPPRLPRPRPRPQRQPRP ?
Key: -0.00525

Exercise: Recorded shrunken log2 fold change of RRIRWRPPRLPRPRPRPFCAPRP , please.
Key: 0.23

Exercise: What does the record list as shrunken log2 fold change for RRIRWRPPRLPRPRPRPIWGPRP ?
Key: -0.01

Exercise: # input sequence: RRIRFRPPRLPRPRPRPITWPRP ; wanted: its shrunken log2 fold change
Key: -0.972

Exercise: Quick one: shrunken log2 fold change for RRIRIRPPRLPRPRPRPPICPRP ?
Key: -0.132

Exercise: Fill in the blank: the reported shrunken log2 fold change of RRIRVRPPRLPRPRPRPHRQPRP is ____.
Key: -0.384

Exercise: Query (sequence): RRIRYRPPRLPRPRPRPWLTPRP ; field requested: shrunken log2 fold change
Key: -0.558

Exercise: // lookup shrunken log2 fold change for RRIRQRPPRLPRPRPRPDPWPRP
Key: 0.161

Exercise: I'd like to know its shrunken log2 fold change. The sequence in question is RRIRARPPRLPRPRPRPQDMPRP
Key: -0.322

Exercise: # get_value(readout='shrunken log2 fold change', item= RRIRGRPPRLPRPRPRPGVWPRP )
Key: 1.22

Exercise: Which shrunken log2 fold change value is on record for RRIRKRPPRLPRPRPRPKVGPRP ?
Key: 0.00386

Exercise: Entry RRIRWRPPRLPRPRPRPNMRPRP has what shrunken log2 fold change?
Key: 0.0208

Exercise: // shrunken log2 fold change lookup, key: RRIRWRPPRLPRPRPRPITFPRP
Key: -0.232

Exercise: Returns the measured shrunken log2 fold change for the input sequence. Input: RRIRWRPPRLPRPRPRPIVMPRP
Key: -0.154

Exercise: Fill in the blank: the reported shrunken log2 fold change of RRIRIRPPRLPRPRPRPYTDPRP is ____.
Key: -0.0335

Exercise: I would be grateful if you could share the reported shrunken log2 fold change for RRIRRRPPRLPRPRPRPSLEPRP .
Key: 0.232

Exercise: Request the reported shrunken log2 fold change associated with RRIRIRPPRLPRPRPRPSSAPRP
Key: -0.666

Exercise: Report shrunken log2 fold change for RRIRMRPPRLPRPRPRPQCPPRP please.
Key: -0.181

Exercise: I'd like to know its shrunken log2 fold change. The sequence in question is RRIRVRPPRLPRPRPRPYMNPRP
Key: -0.962

Exercise: Look up shrunken log2 fold change: RRIRQRPPRLPRPRPRPLWGPRP
Key: -0.0254

Exercise: shrunken log2 fold change for RRIRWRPPRLPRPRPRPWCCPRP ?
Key: -0.065

Exercise: shrunken log2 fold change for RRIRGRPPRLPRPRPRPALSPRP ?
Key: 1.31

Exercise: Form field: reported shrunken log2 fold change of RRIRERPPRLPRPRPRPAESPRP
Key: -0.049

Exercise: Form field: reported shrunken log2 fold change of RRIRYRPPRLPRPRPRPYNCPRP
Key: -0.0167

Exercise: Name the reported shrunken log2 fold change value associated with the sequence RRIRQRPPRLPRPRPRPKRFPRP
Key: -0.0339

Exercise: What shrunken log2 fold change value was documented for this sequence, RRIRARPPRLPRPRPRPIEAPRP ?
Key: 0.213

Exercise: Field request: shrunken log2 fold change | item: RRIRVRPPRLPRPRPRPFMQPRP
Key: -0.285

Exercise: # query: shrunken log2 fold change of entry RRIRSRPPRLPRPRPRPSPFPRP
Key: -0.191

Exercise: Which shrunken log2 fold change is reported for this sequence? RRIRDRPPRLPRPRPRPGMMPRP
Key: 0.0672

Exercise: Find the recorded shrunken log2 fold change belonging to RRIRMRPPRLPRPRPRPDTEPRP and report it.
Key: 0.33

Exercise: For the sequence RRIRARPPRLPRPRPRPACSPRP , what shrunken log2 fold change is on record?
Key: 0.591

Exercise: Query: shrunken log2 fold change; subject: RRIRHRPPRLPRPRPRPDSQPRP
Key: -0.194

Exercise: Find the recorded shrunken log2 fold change belonging to RRIRHRPPRLPRPRPRPTMFPRP and report it.
Key: -0.0195

Exercise: May I ask what shrunken log2 fold change has been recorded for RRIRPRPPRLPRPRPRPWTVPRP ?
Key: -0.155

Exercise: I have this sequence here, RRIRNRPPRLPRPRPRPGMKPRP , and I need its recorded shrunken log2 fold change.
Key: -0.272

Exercise: Any idea what shrunken log2 fold change was measured for RRIRVRPPRLPRPRPRPYLVPRP ?
Key: -0.511

Exercise: What value of shrunken log2 fold change has been recorded for this entry: RRIRNRPPRLPRPRPRPFQAPRP
Key: -0.0439

Exercise: # lookup: shrunken log2 fold change of RRIRIRPPRLPRPRPRPCRTPRP
Key: -0.333

Exercise: Bench note: what shrunken log2 fold change did RRIRPRPPRLPRPRPRPDFNPRP show?
Key: 1.09

Exercise: Consider the sequence RRIRSRPPRLPRPRPRPFEEPRP and give its measured shrunken log2 fold change.
Key: -0.345

Exercise: Give the measured shrunken log2 fold change of RRIRLRPPRLPRPRPRPWPLPRP .
Key: -0.039

Exercise: Reported shrunken log2 fold change for RRIRVRPPRLPRPRPRPGWKPRP : what is it?
Key: 0.169

Exercise: Field request: shrunken log2 fold change | item: RRIRPRPPRLPRPRPRPICLPRP
Key: 2.37

Exercise: Reported shrunken log2 fold change, sequence RRIRGRPPRLPRPRPRPAESPRP : ____
Key: 0.764

Exercise: Using the record for RRIRVRPPRLPRPRPRPFFAPRP , report its shrunken log2 fold change.
Key: 0.238

Exercise: Would you kindly share the measured shrunken log2 fold change for RRIRLRPPRLPRPRPRPGIGPRP ?
Key: 0.417

Exercise: Sample RRIRERPPRLPRPRPRPPYWPRP — what was its shrunken log2 fold change?
Key: 0.0536

Exercise: Could you tell me which shrunken log2 fold change is on file for RRIRHRPPRLPRPRPRPYWRPRP ?
Key: -0.347

Exercise: Given the sequence RRIRSRPPRLPRPRPRPTVVPRP , what is its reported shrunken log2 fold change?
Key: -0.112

Exercise: Can you share its shrunken log2 fold change? I mean this sequence: RRIRCRPPRLPRPRPRPSVQPRP
Key: -0.579

Exercise: // query shrunken log2 fold change value for entry RRIRVRPPRLPRPRPRPDGNPRP
Key: -0.189

Exercise: Form field: reported shrunken log2 fold change of RRIRHRPPRLPRPRPRPPGAPRP
Key: 0.935

Exercise: Entry RRIRERPPRLPRPRPRPRHTPRP has what shrunken log2 fold change?
Key: -0.187

Exercise: Which value of shrunken log2 fold change has been reported for RRIRFRPPRLPRPRPRPYACPRP in the records?
Key: 0.0338

Exercise: Data request, read-out shrunken log2 fold change, for RRIRHRPPRLPRPRPRPESVPRP
Key: 0.0222

Exercise: Bench note: what shrunken log2 fold change did RRIRHRPPRLPRPRPRPNQSPRP show?
Key: -0.3

Exercise: Reported shrunken log2 fold change for RRIRRRPPRLPRPRPRPKHLPRP : what is it?
Key: 0.0709
